Known Motility of a selection of compounds
- Test system: Schistosoma mansoni
- measurement_description: MMV: Motility assay. Percent change (relative to DMSO controls) @ 5 uM of movement of 4-5 Schistosoma mansoni adult males after 48 h as measured by the Consensus Voting Luminance Difference algorithm available on WormAssay (PMID:22303493). Occasional incongruence ocurrs between the motility scores and the visually adjudicated 'toxicity scores'. In these cases the 'toxicity score' should be prioritized. Only those Malaria box 'Drug-like' cpds yielding the most severe phenotypes vs. somules were tested. Caffrey group UCSF.
- Type: functional
recorded_metric: Motility

{"compound": "O=C(Nc1nc(-c2ccccn2)cs1)c1ccccc1Br", "recorded_metric": "Motility", "reading": 80.4}
{"compound": "O=C(Nc1ccc(F)c(Cl)c1)Nc1ccc(Cl)c(Cl)c1", "recorded_metric": "Motility", "reading": 3.2}
{"compound": "Cc1ccc(CN2CCC(C(=O)Nc3ccc(-c4cc5ccccc5[nH]4)cc3)CC2)o1", "recorded_metric": "Motility", "reading": 126.5}
{"compound": "CN(C)CCNc1cc(-c2ccccc2)nc2ccccc12", "recorded_metric": "Motility", "reading": 68.3}
{"compound": "COc1ccc(-c2nc3cc(Cc4ccc5[nH]c(-c6ccc(OC)cc6)nc5c4)ccc3[nH]2)cc1", "recorded_metric": "Motility", "reading": 24.7}
{"compound": "Cc1cc(C)c2nc(N3CCC(C(=O)NCCCN4CCC(N5CCCCC5)CC4)CC3)sc2c1", "recorded_metric": "Motility", "reading": 125.2}
{"compound": "COc1cc2c(cc1OC)C1=NNC(=O)C1=NC(C)(C)C2", "recorded_metric": "Motility", "reading": 120}
{"compound": "Cl.OC(CNCc1ccccc1)Cn1c2ccccc2c2ccccc21 (configuration not stated)", "recorded_metric": "Motility", "reading": 49.4}
{"compound": "CC(C)(C)c1ccc(C(=O)Nc2nc3ccccc3s2)cc1", "recorded_metric": "Motility", "reading": 113.8}
{"compound": "Oc1ccccc1CN1CCC2(CCCN(Cc3ccccc3F)C2)C1 (configuration not stated)", "recorded_metric": "Motility", "reading": 150.6}
{"compound": "COc1ccc(CCN2CCC(CN(C)Cc3cnn(-c4ccccc4)c3)CC2)cc1", "recorded_metric": "Motility", "reading": 114.8}
{"compound": "Cl.N=c1n(CCN2CCCCC2)c2ccccc2n1CC(O)c1cccc(Br)c1 (configuration not stated)", "recorded_metric": "Motility", "reading": 74.8}

---

- System: Schistosoma mansoni
- Type: functional
- Set-up: scale not given here
Overview of recorded Toxicity for various compounds

{"compound": "COc1cccc(C(=O)NC(c2ccc(C)cc2)c2cc(Cl)c3cccnc3c2O)c1 (configuration not stated)", "Toxicity": 1}
{"compound": "Cc1ccc2nc(C)cc(Nc3cccc(C(F)(F)F)c3)c2c1.Cl", "Toxicity": 2}
{"compound": "CCCCN(CCCC)S(=O)(=O)c1ccc(NC(=O)c2ccco2)cc1", "Toxicity": 0}
{"compound": "CCN(CC)c1cc(C)c2cc(NC(=O)c3cccc(OC)c3)ccc2n1", "Toxicity": 2}
{"compound": "O=C(CCc1ccco1)NC1CCN(CC2(c3ccc(Cl)cc3)CCC2)CC1", "Toxicity": 0}
{"compound": "CCOc1cc(Cl)c(C(C)NC(=O)c2ccccc2)cc1OCC (configuration not stated)", "Toxicity": 0}
{"compound": "Cc1ccc(OCCCCCCNCCO)c(C)c1", "Toxicity": 0}
{"compound": "CCOc1ccc(/C=C/c2nc(=O)c3ccccc3o2)cc1", "Toxicity": 0}
{"compound": "CCOC(=O)c1c[nH]c2c(CC)cccc2c1=O", "Toxicity": 0}
{"compound": "Nc1ccn([C@@H]2O[C@H](CO)[C@@H](O)[C@H]2O)c(=O)n1 [CYTIDINE]", "Toxicity": 0}
{"compound": "c1ccc(/C2=N/c3ccccc3/N=C(/c3ccccc3)c3ccccc32)cc1", "Toxicity": 1}
{"compound": "CCn1nc(-c2ccc(C(=O)OC)cc2)nc2c(=O)n(C)c(=O)nc1-2", "Toxicity": 4}
{"compound": "O=C(NC1CCCC1)c1ccc(N2CCC(NCc3cccc(C(F)(F)F)c3)CC2)cc1", "Toxicity": 0}
{"compound": "CSc1ccccc1C(=O)Nc1nc(-c2ccccn2)cs1", "Toxicity": 0}
{"compound": "CCOC(=O)c1cnc2ccc(OC)cc2c1NCc1ccccc1", "Toxicity": 1}
{"compound": "CCOc1cc2c(cc1OCC)C(c1cc(C)c(O)c(C)c1)NCC2.Cl (configuration not stated)", "Toxicity": 2}
{"compound": "CC(Oc1ccc(NC(=O)c2cccs2)cc1)C(=O)c1ccc(Cl)cc1 (configuration not stated)", "Toxicity": 0}
{"compound": "CCc1ccc(Nc2cc(C)c3ccc(O)cc3n2)cc1.Cl", "Toxicity": 2}
{"compound": "Cc1ccc(CN2CCC(C(=O)Nc3ccc(-c4cc5ccccc5[nH]4)cc3)CC2)o1", "Toxicity": 0}
{"compound": "CN(C)CCCNc1c2ccccc2nc2ccccc12", "Toxicity": 2}
{"compound": "c1ccc(CNc2nc(Nc3ccccc3)nc3ccccc23)cc1", "Toxicity": 2}
{"compound": "CCOC(=O)c1cnc2c(C)cccc2c1Nc1ccc(C(C)=O)cc1", "Toxicity": 0}

---

- Tested on: Schistosoma mansoni
- Assay type: functional
- Design: scale not given here

{"molecule": "COc1ccc(C(=O)C(CCC(CNC(C)(C)C)C(=O)c2ccc(OC)cc2)CNC(C)(C)C)cc1 (centres undefined)", "Toxicity": 0}
{"molecule": "COc1ccc(C(=O)Nc2ccc3nc(N4CCCCC4)cc(C)c3c2)cc1OC", "Toxicity": 0}
{"molecule": "Cc1sc(NC(=O)c2ccccc2)c(C(c2cccs2)N2CCN(c3ccccc3)CC2)c1C (centres undefined)", "Toxicity": 0}
{"molecule": "COc1ccc(-c2cn3c(C(=O)Nc4ccccc4Cl)c(-c4ccccc4)c4c3n2CCCC4)cc1", "Toxicity": 0}
{"molecule": "Cn1c(C(=O)c2cccc3ccccc23)nc2ccccc21", "Toxicity": 0}
{"molecule": "CCc1ccc(Nc2cc(C)nc3nc(C)nn23)cc1", "Toxicity": 0}
{"molecule": "COc1ccccc1C(=O)ON=C(N)Cc1cccc2ccccc12", "Toxicity": 1}
{"molecule": "COc1cc(C(=O)Nc2ccc(-c3nc4ccccc4[nH]3)cc2)cc(OC)c1OC", "Toxicity": 0}
{"molecule": "CCOc1cc2c(cc1OCC)C(c1cc(OC)c(O)cc1Cl)NCC2 (centres undefined)", "Toxicity": 0}
{"molecule": "CCN(CC)CCn1c(=N)n(CC(O)c2ccc(Cl)c(Cl)c2)c2ccccc21.Cl (centres undefined)", "Toxicity": 3}
{"molecule": "O=c1nc(C=Cc2ccc(Cl)cc2)oc2ccccc12", "Toxicity": 2}
{"molecule": "Cl.OC(CNCc1ccccc1)Cn1c2ccccc2c2ccccc21 (centres undefined)", "Toxicity": 4}
{"molecule": "Oc1ccc2ccccc2c1CNc1nc2ccccc2[nH]1", "Toxicity": 2}
{"molecule": "O=C(NC1CCCCC1)C(c1cccs1)N(CCc1ccccc1)C(=O)c1ccco1 (centres undefined)", "Toxicity": 0}
{"molecule": "O=C(Cc1ccccc1)NC(c1ccc(Cl)cc1)c1c(O)ccc2ccccc12 (centres undefined)", "Toxicity": 2}
{"molecule": "COc1ccc2nc(C)cc(Nc3ccccc3O)c2c1", "Toxicity": 0}
{"molecule": "CCOc1ccc2c(c1)CN(Cc1ccc(Cl)cc1)CO2", "Toxicity": 2}
{"molecule": "COc1ccc(Nc2nc(N/N=C/c3ccc(O)cc3)nc(Nc3ccc([N+](=O)[O-])cc3)n2)cc1", "Toxicity": 0}
{"molecule": "COc1ccc(C2c3ccc4ccccc4c3Oc3ncn(CCCN(C)C)c(=N)c32)cc1 (centres undefined)", "Toxicity": 4}
{"molecule": "CCCCC(O)(c1ccc(Cl)cc1)C(CN1CCOCC1)c1ccc(Cl)cc1.Cl (centres undefined)", "Toxicity": 0}
{"molecule": "CCCc1c(C)nc2ccccc2c1O", "Toxicity": 0}
{"molecule": "COCCn1c(C)nc2ccccc2c1=O", "Toxicity": 0}
{"molecule": "CCN(Cc1ccccc1)C1CCN(Cc2cc(Br)ccc2O)CC1.O=C(O)C(=O)O", "Toxicity": 0}
{"molecule": "CC(C)(C)CC(C)(C)NCC(O)COc1ccc2c(c1)CCC2.Cl (centres undefined)", "Toxicity": 2}
{"molecule": "COc1ccc(C(=O)Nc2nonc2-c2ccc(OC)c(OC)c2)cc1Cl", "Toxicity": 0}
{"molecule": "c1ccc(-c2ccc(-c3nc4ccccc4[nH]3)cc2)cc1", "Toxicity": 0}
{"molecule": "COc1ccc(C2N(C)c3ccccc3N2C)cc1", "Toxicity": 0}
{"molecule": "CCOc1cccc(C(=O)Nc2ccc(-c3nc4ccccc4[nH]3)cc2)c1", "Toxicity": 0}
{"molecule": "O=[N+]([O-])c1ccc(C=NNc2nc3ccccc3[nH]2)cc1", "Toxicity": 0}

Source: ChEMBL document CHEMBL2363022
